molecular target: PTP SHP2 (Homo sapiens, UniProt Q06124); construct: The catalytic domain was amplified using the following oligonucleotides; made in house; host or cells: Sf-9 insect cells (pFastBac-G2T); experiment: PTP IC50 assay, fluorescent substrate DiFMUP; format: biochemical; conditions: DiFMUP as substrate, 25° C.; read-out: PTP IC50 SHP2
Sequence (Q06124 247-517 limits assumed): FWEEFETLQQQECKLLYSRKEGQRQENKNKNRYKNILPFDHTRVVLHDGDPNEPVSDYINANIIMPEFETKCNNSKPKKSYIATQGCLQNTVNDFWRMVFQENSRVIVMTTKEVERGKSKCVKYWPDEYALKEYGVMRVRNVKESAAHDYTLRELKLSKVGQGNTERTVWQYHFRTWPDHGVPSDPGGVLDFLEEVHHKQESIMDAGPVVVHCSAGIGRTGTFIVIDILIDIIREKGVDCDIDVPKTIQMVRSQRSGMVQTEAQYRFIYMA
Reported Property: pIC50
Conceptually, pIC50 converts a concentration in mol/L into minus its log10.

Study these solved cases before continuing.
compound="Cn1c(C(=O)Nc2cccc(C(=O)O)c2)cc2cc(NS(=O)(=O)C(F)(F)F)ccc21 [Example 82]" assay_result=4.06
compound="CCn1c(-c2ccc(C(=O)O)cc2)nc2cc(S(=O)(=O)C(F)(F)F)ccc21 [Example 36]" assay_result=4.24
compound="CCOC(=O)c1cc2cc(N(S(=O)(=O)C(F)(F)F)S(=O)(=O)C(F)(F)F)ccc2n1CC(=O)OC(C)(C)C [Example 99]" assay_result=5.15

The record that follows has no pIC50 shown yet.
**Q:** Given the entry O=C(O)COc1ccc(S(=O)(=O)c2ccc(Oc3ccc(S(=O)(=O)C(F)(F)F)cc3[N+](=O)[O-])cc2)cc1 [Example 52] , report its measured pIC50.
**A:** 5.10

---

Target: PTP 1B (Homo sapiens)
Construct: made in house; host or cells: Sf-9 insect cells (pFastBac-G2T)
Sequence (P18031 1-435): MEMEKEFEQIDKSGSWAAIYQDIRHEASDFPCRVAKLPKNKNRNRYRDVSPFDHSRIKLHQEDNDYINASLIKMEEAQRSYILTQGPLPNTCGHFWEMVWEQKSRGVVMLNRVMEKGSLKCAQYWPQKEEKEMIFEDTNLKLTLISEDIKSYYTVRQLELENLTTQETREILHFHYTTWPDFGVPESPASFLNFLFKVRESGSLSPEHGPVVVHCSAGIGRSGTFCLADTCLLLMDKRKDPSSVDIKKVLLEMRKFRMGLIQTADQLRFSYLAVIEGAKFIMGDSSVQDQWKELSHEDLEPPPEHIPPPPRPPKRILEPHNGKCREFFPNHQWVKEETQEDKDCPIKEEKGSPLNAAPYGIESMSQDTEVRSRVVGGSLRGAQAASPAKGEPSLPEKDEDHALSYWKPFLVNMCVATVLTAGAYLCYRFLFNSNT
Assay: PTP IC50 assay, fluorescent substrate DiFMUP
Assay type: biochemical
Conditions: DiFMUP as substrate, 25° C.; read-out: PTP IC50 1B
Reported Property: IC50

smiles=CCOC(=O)c1cc2cc(NS(=O)(=O)C(F)(F)F)ccc2n1C target_desc="PTP 1B (Homo sapiens)" reported_property=IC50 assay_result="> 20 µM"
smiles=Cc1cc2cc(NS(=O)(=O)C(F)(F)F)ccc2n1CC(=O)NCc1ccc(C(=O)O)cc1 target_desc="PTP 1B (Homo sapiens)" reported_property=IC50 assay_result="> 20 µM"

**Q:** Given the entry `Cn1c(C(=O)Nc2ccccc2)cc2cc(NS(=O)(=O)C(F)(F)F)ccc21` , report its measured IC50.
**A:** > 20 µM

---

target: PTP SIGMA (Homo sapiens); construct: made in house; host or cells: E. coli BL-21 (pGEX 6P-1); assay: PTP IC50 assay, pNPP or FDP as substrate; format: biochemical; details: pNPP or FDP as substrate, 25° C.; read-out: PTP IC50 Sigma
Sequence (Q13332 1320-1660 limits assumed): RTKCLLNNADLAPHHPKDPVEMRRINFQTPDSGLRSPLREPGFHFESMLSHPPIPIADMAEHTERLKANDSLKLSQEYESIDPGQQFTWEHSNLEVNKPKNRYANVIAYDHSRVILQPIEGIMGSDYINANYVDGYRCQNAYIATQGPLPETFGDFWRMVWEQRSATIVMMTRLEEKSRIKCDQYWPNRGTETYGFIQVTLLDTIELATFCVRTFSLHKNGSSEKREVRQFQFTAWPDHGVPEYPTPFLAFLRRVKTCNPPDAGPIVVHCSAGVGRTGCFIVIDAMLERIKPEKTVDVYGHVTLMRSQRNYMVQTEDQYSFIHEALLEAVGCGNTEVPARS
Reported Property: IC50 (µM)
Reply with just the number (in µM).

**Q:** Given the entry `O=S(=O)(Nc1ccc(OCCCOc2ccc(NS(=O)(=O)C(F)(F)F)cc2)cc1)C(F)(F)F` , report its measured IC50.
**A:** 41.7

**Q:** Try `O=C(Cc1ccc(CC(=O)Nc2cccc(S(=O)(=O)C(F)(F)F)c2)cc1)Nc1cccc(S(=O)(=O)C(F)(F)F)c1` next.
**A:** 7.8

**Q:** Try `COC(=O)c1ccc(OCCOc2ccc(S(=O)(=O)C(F)(F)F)cc2[N+](=O)[O-])cc1` next.
**A:** 6.75

**Q:** Try `O=S(=O)(c1ccc(CCc2ccc(S(=O)(=O)C(F)(F)F)cc2)cc1)C(F)(F)F` next.
**A:** 81.1

**Q:** Try O=[N+]([O-])c1cc(S(=O)(=O)C(F)(F)F)ccc1OC1CCC(Oc2ccc(S(=O)(=O)C(F)(F)F)cc2[N+](=O)[O-])C1 (mixture of isomers) next.
**A:** 91.7

**Q:** Try `O=C(Cc1cccc(CC(=O)Nc2cccc(S(=O)(=O)C(F)(F)F)c2)c1)Nc1cccc(S(=O)(=O)C(F)(F)F)c1` next.
**A:** 21.1

**Q:** Try `O=C(O)c1ccc(Oc2cccc(Oc3ccc(S(=O)(=O)C(F)(F)F)cc3)c2)cc1` next.
**A:** 22.1

**Q:** Try `O=S(=O)(c1ccc(COc2ccc(S(=O)(=O)C(F)(F)F)cc2)cc1)C(F)(F)F` next.
**A:** 30.5

**Q:** Try `COC(=O)c1cc(Oc2ccc(S(=O)(=O)C(F)(F)F)cc2)cc(Oc2ccc(S(=O)(=O)C(F)(F)F)cc2)c1` next.
**A:** 49.9

**Q:** Try `O=C(O)c1ccc(Oc2cccc(Oc3ccc(S(=O)(=O)C(F)(F)F)cc3[N+](=O)[O-])c2)cc1` next.
**A:** 11.7

**Q:** Try CN(C)CC(COc1ccc(S(=O)(=O)C(F)(F)F)cc1[N+](=O)[O-])Oc1ccc(S(=O)(=O)C(F)(F)F)cc1[N+](=O)[O-] (stereo not drawn) next.
**A:** 53.5

**Q:** Try `CCOC(=O)c1cc(Oc2ccc(S(=O)(=O)C(F)(F)F)cc2[N+](=O)[O-])c(C(=O)OCC)cc1O` next.
**A:** 69

**Q:** Try `COC(=O)c1c(Oc2ccc(S(=O)(=O)C(F)(F)F)cc2[N+](=O)[O-])cc(C)cc1Oc1ccc(S(=O)(=O)C(F)(F)F)cc1[N+](=O)[O-]` next.
**A:** 84.5

**Q:** Try `CC(C)(COc1ccc(NS(=O)(=O)C(F)(F)F)cc1)COc1ccc(NS(=O)(=O)C(F)(F)F)cc1` next.
**A:** 11.6

**Q:** Try `COC(=O)c1cc(Oc2ccc(S(=O)(=O)C(F)(F)F)cc2[N+](=O)[O-])n(-c2cc(C(F)(F)F)cc(C(F)(F)F)c2)n1` next.
**A:** 29.4

**Q:** Try `O=C(c1ccccc1)N(Cc1ccc(S(=O)(=O)C(F)(F)F)cc1)Cc1ccc(S(=O)(=O)C(F)(F)F)cc1` next.
**A:** 42.6

**Q:** Try `O=S(=O)(Nc1ccc(Oc2ccc(Oc3ccc(NS(=O)(=O)C(F)(F)F)cc3)cc2)cc1)C(F)(F)F` next.
**A:** 44

**Q:** Try `O=C(O)Cc1cccc(CC(=O)Nc2cccc(S(=O)(=O)C(F)(F)F)c2)c1` next.
**A:** 45.1

Origin of measurements: patent US6596772B1
